Below, each entry is listed alongside its reported Population Apoptotic (%).
# System: Fibroblast
# Assay overview: Multiplex assay against human fibroblast
# Type: toxicity, cell-based
# Condition context: 24 h, 10 µM, compound concentration 10 uM, replicate 1
Test readout: Population Apoptotic (%)

Compound: CCCSc1nc(N[C@@H]2C[C@H]2c2ccc(F)c(F)c2)c2nnn([C@@H]3C[C@H](OCCO)[C@@H](O)[C@H]3O)c2n1 [TICAGRELOR]
Result: 55%

Compound: Cc1c[nH]c2nccc(Oc3c(F)cc(Nc4cc(Cl)nc(N)n4)cc3F)c12 [BAY-549]
Result: 70%

Compound: CC(C)Oc1ccccc1C(=O)Nc1ccccc1C(=O)Nc1cccc(S(=O)(=O)C(F)(F)F)c1
Result: 79%

Compound: COC(=O)C1=C(C)NC(C)=C(C(=O)OCCCN2CCC(c3ccccc3)(c3ccccc3)CC2)[C@H]1c1cccc([N+](=O)[O-])c1 [NIGULDIPINE]
Result: 79%

Compound: CC(C)OC(=O)N1CCC(Oc2ncnc3c2cnn3-c2ccc(S(C)(=O)=O)cc2F)CC1
Result: 43%

Compound: CC(C)(C)NC[C@H](O)COc1nsnc1N1CCOCC1 [TIMOLOL]
Result: 65%

Compound: CCc1nn(CCCN2CCN(c3cccc(Cl)c3)CC2)c(=O)n1CCOc1ccccc1.Cl [NEFAZODONE HYDROCHLORIDE]
Result: 80%

Compound: Cc1ccc(C)c(Oc2ccncc2C(=O)N2CCN(C3CC3)c3ccccc32)c1
Result: 55%

Compound: C=CC(=O)Nc1cccc(Sc2nc(Nc3ccc(N4CCN(C)CC4)cc3)ncc2Cl)c1
Result: 80%

Compound: CC1=C(C(=O)Nc2cc3cn[nH]c3cc2F)C(c2ccc(C(F)(F)F)cc2)CC(=O)N1 (stereo unspecified)
Result: 40%

Compound: Cc1nc(N2CC[C@H](O)C2)ncc1-c1cc(C(F)(F)F)cc2[nH]ncc12
Result: 65%

Compound: COc1cc2ncn(-c3cc(OCc4ccccc4C(F)(F)F)c(C(N)=O)s3)c2cc1OC [GW843682X]
Result: 74%

Compound: CC(C)CC(=O)Nc1[nH]nc2c1CN(C(=O)C1CCN(C)CC1)C2(C)C [PHA-793887]
Result: 61%

Compound: O=c1[nH]c2ccccc2n1C1CCN(Cc2ccc(-c3[nH]c4cc5ncnc5cc4nc3-c3ccccc3)cc2)CC1
Result: 70%

Compound: Cl.O=C(O)c1cc(-c2ccc(C3CCNCC3)cc2)c2ccc(-c3ccc(C(F)(F)F)cc3)cc2c1
Result: 53%

Compound: Cc1cccc(CN2CCN(C(c3ccccc3)c3ccc(Cl)cc3)CC2)c1.Cl.Cl (stereo unspecified)
Result: 66%

Compound: COc1ccccc1CN[C@H]1C2CCN(CC2)[C@H]1C(c1ccccc1)c1ccccc1 [CP-96345]
Result: 55%

Compound: Cc1ccccc1C(c1ccccc1C)N1C2CCC1CC(O)(c1ccccc1)C2 (stereo unspecified)
Result: 47%

Compound: Cc1ccc2c(c1)c1c(n2CCc2ccc(C)nc2)CCN(C)C1 [LATREPIRDINE]
Result: 55%

Compound: C=CC(=O)Nc1ccc2[nH]c(=O)n(C3CCN(Cc4ccc(-c5nc6cc[nH]c(=O)c6cc5-c5ccccc5)cc4)CC3)c2c1 [Borussertib]
Result: 55%

Compound: COc1cc(Nc2nccc(-c3cnn4nc(OC)ccc34)n2)cc(C(F)(F)F)c1
Result: 46%

Compound: COc1ccc(-c2ccc3ncc4c(c3c2)n(-c2ccc(N3CCNCC3)c(C(F)(F)F)c2)c(=O)n4C)cn1.O=C(O)/C=C\C(=O)O [BGT-226]
Result: 58%

Compound: CNC(=O)Nc1ccc2c(c1)[C@@]1(CC2)OC(=O)N(CC(=O)N(Cc2ccc(F)cc2)[C@@H](C)C(F)(F)F)C1=O [A-486]
Result: 60%

Compound: O=C(c1cc2c(cc1F)OC(c1ccc(F)cc1)(c1ccc(Cl)cc1Cl)O2)N1CCOCC1 (stereo unspecified)
Result: 67%

Compound: CNC(=O)Nc1ccc(-c2nc(N3CC4CCC(C3)O4)c3cnn(C4CCC5(CC4)OCCO5)c3n2)cc1
Result: 77%

Compound: CCc1ccc(OCc2ccccc2C(=O)Nc2ccc3nc(C)cc(N)c3c2)cc1.Cl
Result: 40%

Compound: CC(C)c1noc(N2CCC(COc3ccc(-c4ccc(S(C)(=O)=O)cc4)nc3)CC2)n1 [GSK-1292263]
Result: 52%

Compound: O=c1cc(N2CCOCC2)oc2c(-c3cccc4c3sc3ccccc34)cccc12
Result: 77%

Compound: C[C@]12CC[C@@H]3c4ccc(O)cc4CC[C@H]3[C@@H]1CC[C@@H]2O [ESTRADIOL]
Result: 73%

Compound: CN1CCN(Cc2ccc(Nc3ncc(Cl)c(Nc4ccccc4S(=O)(=O)N(C)C)n3)cc2)CC1 [DUBERMATINIB]
Result: 42%

Compound: C=CC(=O)Nc1cccc(Oc2nc(Nc3ccc(N4CCN(C)CC4)cc3OC)ncc2Cl)c1
Result: 70%
